# Target system: T1, Plant Homeodomain (PHD) of ING4 (uniformly 15N enriched (NMR samples))
# T1 chain: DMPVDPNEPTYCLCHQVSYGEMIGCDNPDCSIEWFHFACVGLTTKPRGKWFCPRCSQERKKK
# Assay procedure: NMR titration; PHD titrated with peptide, 0% Ficoll 70; 20 mM sodium phosphate pH 6.5, 50 mM NaCl, 1 mM DTT, 25 °C; CSP of W237 amide
# Condition set: both partners purified
pKd: −log10 of the molar value. Where no end group is shown, it is not given here. [ ]: non-standard residue; d: D form. Lys(Me3) = C[N+](C)(C)CCCC[C@H](N)C(=O)O
Observation type: pKd

{"Binder": "ART[Lys(Me3)]QTARKSTGGKAY (histone H3 N-terminal tail, residues 1-15; extra Tyr residue at the C-terminus for concentration measurement by UV absorbance; also called H3K4me3; H3K4me3 peptide) [histone H3 peptide (residues 1-15 plus C-terminal Tyr) trimethylated at lysine 4]", "Reading": 5.41}
